Parameter β-Man % Ra (% remaining activity at 100 µM): see the listing below.
- Tested on: β-mannosidase (Roman snail)
- MEASUREMENT NOTES: Glycosidase inhibition assay, β-mannosidase
- Assay type: biochemical
- CONDITION DETAILS: 100 µM compound; substrate at Km
PROPERTY NAME: β-Man % Ra (% remaining activity at 100 µM)

CHEMICAL SMILES: CCCCN1CCC[C@@H](O)[C@H](O)[C@@H](O)C1
RESULT: 100%
//
CHEMICAL SMILES: CCCCCCCCCN1C[C@@H](O)[C@@H](O)[C@@H](O)[C@H](O)[C@@H](O)C1
RESULT: 99%
//
CHEMICAL SMILES: CCCCN1[C@H](CO)C(O)[C@H]1CO
RESULT: 99%
//
CHEMICAL SMILES: CCCCCCCCCN1[C@@H](CO)C(O)[C@@H]1CO
RESULT: 106%
//
CHEMICAL SMILES: CCCCCCCCCN1C/C=C\[C@@H](O)[C@H](O)[C@@H](O)C1
RESULT: 99%
//
CHEMICAL SMILES: CCCCCCCCCN1CCC[C@@H](O)[C@H](O)[C@@H](O)C1
RESULT: 93%
//
CHEMICAL SMILES: CCCCN1[C@H](CO)[C@@H](O)[C@@H]1CO
RESULT: 113%
//
CHEMICAL SMILES: CCCCCCCCCN1[C@H](CO)[C@@H](O)[C@@H]1CO
RESULT: 76%

###

- System: β-glucosidase (almond)
- MEASUREMENT NOTES: Glycosidase inhibition assay, β-glucosidase
- Type: biochemical
- CONDITION DETAILS: 100 µM compound; substrate at Km
# if measured β-Glc % Ra (% remaining activity at 100 µM) < 80%: y  # else: n

COMPOUND: CCCCCCCCCN1C/C=C\[C@@H](O)[C@H](O)[C@@H](O)C1 [Compound 4]
CLASS: y
--
COMPOUND: CCCCCCCCCN1C[C@@H](O)[C@@H](O)[C@@H](O)[C@H](O)[C@@H](O)C1 [Compound 6]
CLASS: n
--
COMPOUND: CCCCCCCCCN1[C@H](CO)[C@@H](O)[C@@H]1CO [Compound 25]
CLASS: y
--
COMPOUND: CCCCCCCCCN1[C@H](CO)C(O)[C@H]1CO [Compound 23]
CLASS: n

###

Parameter remaining activity at 100 µM: see the listing below.
- TEST TARGET: β-galactosidase (Escherichia coli) (Escherichia coli, UniProt P00722)
- Sequence (P00722 2-1024): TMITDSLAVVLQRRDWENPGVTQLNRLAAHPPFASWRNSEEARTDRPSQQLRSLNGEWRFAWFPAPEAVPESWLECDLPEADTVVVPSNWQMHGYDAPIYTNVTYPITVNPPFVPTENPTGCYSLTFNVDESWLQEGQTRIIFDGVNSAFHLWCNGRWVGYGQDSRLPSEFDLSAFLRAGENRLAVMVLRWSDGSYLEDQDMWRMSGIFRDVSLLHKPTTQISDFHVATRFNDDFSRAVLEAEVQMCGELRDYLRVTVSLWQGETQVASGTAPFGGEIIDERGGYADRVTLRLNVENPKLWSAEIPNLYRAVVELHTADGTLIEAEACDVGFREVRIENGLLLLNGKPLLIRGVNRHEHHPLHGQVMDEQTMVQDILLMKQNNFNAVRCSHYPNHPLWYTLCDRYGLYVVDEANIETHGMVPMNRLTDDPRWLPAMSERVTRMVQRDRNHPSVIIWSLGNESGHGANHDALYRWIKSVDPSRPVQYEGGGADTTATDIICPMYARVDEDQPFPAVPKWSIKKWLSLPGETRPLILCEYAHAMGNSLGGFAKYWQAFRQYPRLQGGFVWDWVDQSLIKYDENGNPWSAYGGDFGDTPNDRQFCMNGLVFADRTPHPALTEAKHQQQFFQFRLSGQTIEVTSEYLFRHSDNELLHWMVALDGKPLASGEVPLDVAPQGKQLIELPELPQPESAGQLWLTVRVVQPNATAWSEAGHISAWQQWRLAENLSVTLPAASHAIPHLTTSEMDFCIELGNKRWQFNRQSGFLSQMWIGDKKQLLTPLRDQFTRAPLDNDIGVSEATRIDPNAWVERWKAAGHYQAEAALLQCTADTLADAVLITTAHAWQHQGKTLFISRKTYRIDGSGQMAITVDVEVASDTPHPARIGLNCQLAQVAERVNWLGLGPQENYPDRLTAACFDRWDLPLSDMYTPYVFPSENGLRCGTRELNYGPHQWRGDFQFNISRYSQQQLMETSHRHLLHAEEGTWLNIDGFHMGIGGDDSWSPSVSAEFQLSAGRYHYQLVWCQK
- MEASUREMENT NOTES: biochemical
- CONDITION DETAILS: read-out: β-Gal % Ra (% remaining activity at 100 µM)

COMPOUND: CCCCCCCCCN1[C@H](CO)C(O)[C@H]1CO
remaining activity at 100 µM, %: 88

COMPOUND: CCCCN1[C@H](CO)C(O)[C@H]1CO
remaining activity at 100 µM, %: 99

COMPOUND: CCCCN1C/C=C\[C@@H](O)[C@H](O)[C@@H](O)C1
remaining activity at 100 µM, %: 94

COMPOUND: CCCCCCCCCN1CCC[C@@H](O)[C@H](O)[C@@H](O)C1
remaining activity at 100 µM, %: 92

COMPOUND: CCCCN1CCC[C@@H](O)[C@H](O)[C@@H](O)C1
remaining activity at 100 µM, %: 98

COMPOUND: CCCCN1C[C@H](O)[C@@H](O)[C@@H](O)[C@H]1CO [NB-DGJ, N-butyldeoxygalactonojirimycin, reference compound]
remaining activity at 100 µM, %: 9.6

COMPOUND: CCCCCCCCCN1C/C=C\[C@@H](O)[C@H](O)[C@@H](O)C1
remaining activity at 100 µM, %: 90

COMPOUND: CCCCN1[C@@H](CO)C(O)[C@@H]1CO
remaining activity at 100 µM, %: 96

COMPOUND: CCCCCCCCCN1[C@@H](CO)C(O)[C@@H]1CO
remaining activity at 100 µM, %: 99

###

- TEST TARGET: UniProt:C0HJB3
- Sequence (C0HJB3 1-562 limits assumed): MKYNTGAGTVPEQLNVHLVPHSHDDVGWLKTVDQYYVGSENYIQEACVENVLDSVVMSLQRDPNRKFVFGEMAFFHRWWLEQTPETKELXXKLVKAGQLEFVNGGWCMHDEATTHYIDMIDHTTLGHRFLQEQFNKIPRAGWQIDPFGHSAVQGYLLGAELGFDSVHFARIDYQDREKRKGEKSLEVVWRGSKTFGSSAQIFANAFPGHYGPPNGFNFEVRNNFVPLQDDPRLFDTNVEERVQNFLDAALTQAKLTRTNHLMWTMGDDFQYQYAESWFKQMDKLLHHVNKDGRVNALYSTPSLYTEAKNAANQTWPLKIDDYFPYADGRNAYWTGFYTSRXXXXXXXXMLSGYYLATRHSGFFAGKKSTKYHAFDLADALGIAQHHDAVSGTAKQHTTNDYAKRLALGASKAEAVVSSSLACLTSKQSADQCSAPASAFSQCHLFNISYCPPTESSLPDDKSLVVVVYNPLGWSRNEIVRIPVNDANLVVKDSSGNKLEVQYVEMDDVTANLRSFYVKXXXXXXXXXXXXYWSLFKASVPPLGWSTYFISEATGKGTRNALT
- Sequence (C0HJB3 563-981 partner limits assumed): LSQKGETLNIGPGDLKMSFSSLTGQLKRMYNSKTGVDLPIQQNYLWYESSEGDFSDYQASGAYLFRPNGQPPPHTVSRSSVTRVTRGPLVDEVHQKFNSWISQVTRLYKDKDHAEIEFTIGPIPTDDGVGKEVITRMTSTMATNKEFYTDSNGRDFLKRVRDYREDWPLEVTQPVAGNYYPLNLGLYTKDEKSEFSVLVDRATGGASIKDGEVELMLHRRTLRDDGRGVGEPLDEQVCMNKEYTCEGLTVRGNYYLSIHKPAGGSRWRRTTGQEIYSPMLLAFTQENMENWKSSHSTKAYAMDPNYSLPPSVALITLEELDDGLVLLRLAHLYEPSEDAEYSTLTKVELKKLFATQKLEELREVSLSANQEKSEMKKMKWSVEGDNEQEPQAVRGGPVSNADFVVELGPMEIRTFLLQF
- MEASUREMENT NOTES: Glycosidase inhibition assay, α-mannosidase
- Type: biochemical
- CONDITION DETAILS: 100 µM compound; substrate at Km
PROPERTY NAME: α-Man % Ra (% remaining activity at 100 µM) (%)

COMPOUND: CCCCN1C[C@@H](O)[C@@H](O)[C@@H](O)[C@H](O)[C@@H](O)C1 [Compound 5]
UNITS SYMBOL: %
NUMERIC RESULT: 100
//
COMPOUND: CCCCCCCCCN1[C@H](CO)[C@@H](O)[C@@H]1CO [Compound 25]
UNITS SYMBOL: %
NUMERIC RESULT: 92
//
COMPOUND: CCCCN1[C@H](CO)[C@@H](O)[C@@H]1CO [Compound 24]
UNITS SYMBOL: %
NUMERIC RESULT: 99
//
COMPOUND: CCCCCCCCCN1C[C@@H](O)[C@@H](O)[C@@H](O)[C@H](O)[C@@H](O)C1 [Compound 6]
UNITS SYMBOL: %
NUMERIC RESULT: 100
//
COMPOUND: OC[C@H]1NC[C@@H](O)[C@@H](O)[C@@H]1O [DMJ, 1-deoxymannojirimycin, reference compound]
UNITS SYMBOL: %
NUMERIC RESULT: 75

###

- Test system: α-glucosidase (Saccharomyces cerevisiae)
- MEASUREMENT NOTES: Glycosidase inhibition assay, α-glucosidase
- Assay type: biochemical
- CONDITION DETAILS: 100 µM compound; substrate at Km
PROPERTY NAME: α-Glc % Ra (% remaining activity at 100 µM) (%)

CHEMICAL SMILES: CCCCCCCCCN1C/C=C\[C@@H](O)[C@H](O)[C@@H](O)C1
NUMERIC RESULT: 90
--
CHEMICAL SMILES: CCCCN1[C@@H](CO)C(O)[C@@H]1CO
NUMERIC RESULT: 90
--
CHEMICAL SMILES: CCCCCCCCCN1CCC[C@@H](O)[C@H](O)[C@@H](O)C1
NUMERIC RESULT: 84
--
CHEMICAL SMILES: CCCCCCCCCN1[C@H](CO)C(O)[C@H]1CO
NUMERIC RESULT: 100
--
CHEMICAL SMILES: CCCCN1C[C@@H](O)[C@@H](O)[C@@H](O)[C@H](O)[C@@H](O)C1
NUMERIC RESULT: 89
--
CHEMICAL SMILES: CCCCCCCCCN1[C@@H](CO)C(O)[C@@H]1CO
NUMERIC RESULT: 100
--
CHEMICAL SMILES: CCCCN1CCC[C@@H](O)[C@H](O)[C@@H](O)C1
NUMERIC RESULT: 93

###

- System: β-mannosidase (Roman snail)
- MEASUREMENT NOTES: Glycosidase inhibition assay, β-mannosidase
- Format: biochemical
- CONDITION DETAILS: 100 µM compound; substrate at Km
Parameter β-Man % Ra (% remaining activity at 100 µM): see the listing below.
PROPERTY NAME: β-Man % Ra (% remaining activity at 100 µM) (%)

COMPOUND: CCCCN1C[C@@H](O)[C@@H](O)[C@@H](O)[C@H](O)[C@@H](O)C1
NUMERIC RESULT: 100
--
COMPOUND: OC[C@H]1NC[C@@H](O)[C@@H](O)[C@@H]1O [DMJ, 1-deoxymannojirimycin, reference compound]
NUMERIC RESULT: 77
--
COMPOUND: CCCCN1C/C=C\[C@@H](O)[C@H](O)[C@@H](O)C1
NUMERIC RESULT: 99
--
COMPOUND: CCCCN1[C@@H](CO)C(O)[C@@H]1CO
NUMERIC RESULT: 95
--
COMPOUND: CCCCCCCCCN1[C@H](CO)C(O)[C@H]1CO
NUMERIC RESULT: 115

###

- TEST TARGET: UniProtKB O88693
- Sequence (O88693 1-394): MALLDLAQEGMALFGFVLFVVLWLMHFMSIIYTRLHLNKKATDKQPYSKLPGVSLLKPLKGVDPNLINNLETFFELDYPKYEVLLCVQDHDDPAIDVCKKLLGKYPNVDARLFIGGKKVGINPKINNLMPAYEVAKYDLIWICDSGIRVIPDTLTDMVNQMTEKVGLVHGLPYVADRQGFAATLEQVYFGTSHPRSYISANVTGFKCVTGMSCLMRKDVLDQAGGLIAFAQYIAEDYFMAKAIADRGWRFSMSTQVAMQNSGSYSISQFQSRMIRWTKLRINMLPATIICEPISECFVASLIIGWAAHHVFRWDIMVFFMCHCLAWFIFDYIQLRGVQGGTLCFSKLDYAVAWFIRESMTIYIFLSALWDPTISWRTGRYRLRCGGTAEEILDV
- MEASUREMENT NOTES: Ceramide-specific glucosyltransferase assay, mouse testicular microsomes
- Format: biochemical, C57BL/6 mouse
- CONDITION DETAILS: read-out: ceramide-specific glucosyltransferase IC50 (C57BL/6, mouse); mouse testicular microsomes; n.i. = no inhibition at 1000 µM concentration
pIC50: −log10 of the molar value.
Parameter pIC50: see the listing below.
PROPERTY NAME: pIC50

COMPOUND: CCCCN1[C@H](CO)[C@@H](O)[C@@H]1CO [Compound 24]
PROPERTY NAME: pIC50
INEQUALITY SYMBOL: <
NUMERIC RESULT: 3.52

COMPOUND: CCCCCCCCCN1[C@H](CO)[C@@H](O)[C@@H]1CO [Compound 25]
PROPERTY NAME: pIC50
INEQUALITY SYMBOL: =
NUMERIC RESULT: 4.36

Values from paper PMC3431965
